- systemUnderTest: recombinant PRL-2 (Homo sapiens, UniProt Q12974)
- Construct: 6xHis (N, cleaved yes); made in house; host or cells: E. coli One Shot BL21 Star
- Sequence (Q12974 1-167): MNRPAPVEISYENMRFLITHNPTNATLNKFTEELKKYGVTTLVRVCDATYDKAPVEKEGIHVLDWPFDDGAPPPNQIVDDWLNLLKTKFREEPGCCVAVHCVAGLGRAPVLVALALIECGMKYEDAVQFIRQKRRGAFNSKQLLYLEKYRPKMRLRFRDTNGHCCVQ
- testDescription: In vitro phosphatase assay (DiFMUP hydrolysis), PRL-2;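 also: PRL-2 activity read as DiFMUP hydrolysis after 20 min at room temperature with drug, enzyme first pre-reduced at 4 °C for 20 min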
- Assay type: biochemical
- experimentalContext: FDA-approved drug screen; compared to DMSO
Structures can show the parent of a compound that is named as a salt.
# % Phosphatase Activity (compared to DMSO) PRL-2 listing for each entry below
Only the number, expressed in %, is required.

compound	readoutValue
COc1ccc(CN(CCN(C)C)c2ccccn2)cc1 [Pyrilamine Maleate]	111

% Phosphatase Activity (compared to DMSO) PRL-2 for C[C@H](CS)C(=O)N1CCC[C@H]1C(=O)O is 99

% Phosphatase Activity (compared to DMSO) PRL-2 for CN1CC2c3ccccc3Oc3ccc(Cl)cc3C2C1 (centres unmarked) is 107

% Phosphatase Activity (compared to DMSO) PRL-2 for C[C@H](N[C@@H](CCc1ccccc1)C(=O)O)C(=O)N1CCC[C@H]1C(=O)O.O.O [Enalaprilat Dihydrate] is 102

% Phosphatase Activity (compared to DMSO) PRL-2 for OC[C@H]1O[C@@H](O[C@@H]2[C@@H](CO)OC(O)(CO)[C@H]2O)[C@H](O)[C@@H](O)[C@H]1O (mixture of isomers) is 115

% Phosphatase Activity (compared to DMSO) PRL-2 for CC(C(=O)O)c1ccc(-c2ccccc2)c(F)c1 (centres unmarked) is 89

% Phosphatase Activity (compared to DMSO) PRL-2 for Nc1nc(CC(=O)Nc2ccc(CCNC[C@H](O)c3ccccc3)cc2)cs1 is 113

% Phosphatase Activity (compared to DMSO) PRL-2 for CC#C[C@]1(O)CC[C@H]2[C@@H]3CCC4=CC(=O)CCC4=C3[C@@H](c3ccc(N(C)C)cc3)C[C@@]21C is 135

% Phosphatase Activity (compared to DMSO) PRL-2 for C[C@@H](NCCCc1cccc(C(F)(F)F)c1)c1cccc2ccccc12 [Cinacalcet HCl] is 114

% Phosphatase Activity (compared to DMSO) PRL-2 for C[C@H]1[C@H](NC(=O)/C(=N\OC(C)(C)C(=O)O)c2csc(N)n2)C(=O)N1S(=O)(=O)O is 88

% Phosphatase Activity (compared to DMSO) PRL-2 for NCCCC[C@H](N[C@@H](CCc1ccccc1)C(=O)O)C(=O)N1CCC[C@H]1C(=O)O is 86

% Phosphatase Activity (compared to DMSO) PRL-2 for O=C1CC[C@@]2(O)[C@H]3Cc4ccc(O)c5c4[C@@]2(CCN3CC2CC2)[C@H]1O5 [Naltrexone HCl] is 120

% Phosphatase Activity (compared to DMSO) PRL-2 for C[C@@H](O)[C@H]1C(=O)N2C(C(=O)[O-])=C(SC3Cn4cnc[n+]4C3)[C@H](C)[C@H]12 (some centres unmarked) is 74

% Phosphatase Activity (compared to DMSO) PRL-2 for CCn1cc(C(=O)O)c(=O)c2cc(F)c(N3CCNCC3)cc21 is 130

% Phosphatase Activity (compared to DMSO) PRL-2 for CCCCCCCCCCCCCCCCOP(=O)([O-])OCC[N+](C)(C)C is 94

% Phosphatase Activity (compared to DMSO) PRL-2 for CCCCCCCCCCCC1=C(O)C(=O)C=C(O)C1=O [Embelin, reference compound] is 58

% Phosphatase Activity (compared to DMSO) PRL-2 for CN(C)C(=N)N=C(N)N [Metformin HCl] is 78

* * *

- systemUnderTest: recombinant PRL-1 (Homo sapiens, UniProt Q93096)
- Construct: 6xHis (N, cleaved yes); made in house; host or cells: E. coli One Shot BL21 Star
- Sequence (Q93096 1-173): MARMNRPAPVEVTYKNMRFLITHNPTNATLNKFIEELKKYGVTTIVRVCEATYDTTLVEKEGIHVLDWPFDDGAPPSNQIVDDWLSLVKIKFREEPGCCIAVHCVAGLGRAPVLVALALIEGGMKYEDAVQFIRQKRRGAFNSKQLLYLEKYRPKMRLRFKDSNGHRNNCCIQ
- testDescription: In vitro phosphatase assay (DiFMUP hydrolysis), PRL-1; also: test concentration or dose not given here
- Assay type: biochemical
- experimentalContext: FDA-approved drug screen; compared to DMSO
Where a name gives a salt, the structure may show the parent alone.
measuredAttribute: % Phosphatase Activity (compared to DMSO) PRL-1 (%)
Only the number, expressed in %, is required.

compound	readoutValue
CCCN(CCC)CCc1cccc2c1CC(=O)N2 [Ropinirole HCl]	103
O=C(NC[C@H](O)CO)c1ccncc1Nc1ccc(I)cc1F	99
NC[C@H](CC(=O)O)c1ccc(Cl)cc1 [(R)-baclofen]	95
Cc1cnc(NC(=O)C2=C(O)c3ccccc3S(=O)(=O)N2C)s1	74

Switching to the query record.
For CCCCCCCCCCCCCCCC(=O)O[C@@H]1[C@@H](O)[C@@H](O)[C@@H]([C@H](NC(=O)[C@@H]2C[C@@H](CCC)CN2C)[C@H](C)Cl)O[C@@H]1SC.Cl [Clindamycin palmitate HCl] on recombinant PRL-1 (Homo sapiens, UniProt Q93096), measured % Phosphatase Activity (compared to DMSO) PRL-1 was 107

* * *

- systemUnderTest: recombinant PRL-1 (Homo sapiens, UniProt Q93096)
- Construct: 6xHis (N, cleaved yes); made in house; host or cells: E. coli One Shot BL21 Star
- testDescription: In vitro phosphatase assay (DiFMUP hydrolysis), PRL-1; also: test concentration or dose not given here
- Type: biochemical
- experimentalContext: FDA-approved drug screen; compared to DMSO
# % Phosphatase Activity (compared to DMSO) PRL-1 listing for each entry below
Only the number, expressed in %, is required.

compound	readoutValue
Cc1ccc(F)c(NC(=O)Nc2ccc(-c3cccc4[nH]nc(N)c34)cc2)c1	133
CN1[C@@H]2C[C@@H](OC(=O)[C@H](CO)c3ccccc3)C[C@H]1[C@@H]1O[C@@H]12	91
CNCCC(Oc1ccc(C(F)(F)F)cc1)c1ccccc1.Cl (stereo not shown) [Fluoxetine HCl]	93
C/C(=C\C(=O)OCCCCCCCCC(=O)O)C[C@@H]1OC[C@H](C[C@@H]2O[C@H]2[C@@H](C)[C@H](C)O)[C@@H](O)[C@H]1O	92
O=C(O)c1cc(/N=N/c2ccc(O)c(C(=O)O)c2)ccc1O [Olsalazine Sodium]	59
COc1cc2c(cc1OC)CC(=O)N(CCCN(C)C[C@H]1Cc3cc(OC)c(OC)cc31)CC2.Cl [Ivabradine HCl]	108

% Phosphatase Activity (compared to DMSO) PRL-1 for CNC(=O)c1ccc(Nc2ncc(C(F)(F)F)c(NCc3nccnc3N(C)S(C)(=O)=O)n2)cc1 is 98

* * *

# % Phosphatase Activity (compared to DMSO) PRL-1 listing for each entry below
- systemUnderTest: recombinant PRL-1 (Homo sapiens, UniProt Q93096)
- Construct: 6xHis (N, cleaved yes); made in house; host or cells: E. coli One Shot BL21 Star
- testDescription: In vitro phosphatase assay (DiFMUP hydrolysis), PRL-1; also: test concentration or dose not given here
- Type: biochemical
- experimentalContext: FDA-approved drug screen; activity compared to DMSO
Structures can show the parent of a compound that is named as a salt.
Only the number, expressed in %, is required.

Sample answers from the record:
compound	resultUnit	readoutValue
O=C1NC(=O)[C@@H](c2cn3c4c(cccc24)CCC3)[C@@H]1c1c[nH]c2ccccc12 [Tivantinib (ARQ 197)]	%	95
CC[C@@]1(O)C(=O)OCc2c1cc1n(c2=O)Cc2cc3c(CN(C)C)c(O)ccc3nc2-1 [Topotecan HCl]	%	168
Cc1ccc(NC(=O)C2(c3ccc4c(c3)OC(F)(F)O4)CC2)nc1-c1cccc(C(=O)O)c1	%	112
O=C1CCC(N2C(=O)c3ccccc3C2=O)C(=O)N1 (stereo not shown) [Thalidomide]	%	97
Cl.Cl.Cl.O[C@@H](COc1cccc2ncccc12)CN1CCN([C@@H]2c3ccccc3[C@@H]3[C@H](c4ccccc42)C3(F)F)CC1 [Zosuquidar (LY335979) 3HCl]	%	107

% Phosphatase Activity (compared to DMSO) PRL-1 for O=C1O[C@H]([C@@H](O)CO)C([O-])=C1O.[Na+] [Sodium ascorbate] is 85

% Phosphatase Activity (compared to DMSO) PRL-1 for Cc1ccc(-n2nccn2)c(C(=O)N2CCN(c3nc4cc(Cl)ccc4o3)CC[C@H]2C)c1 is 86

* * *

- systemUnderTest: recombinant PRL-3 (Homo sapiens, UniProt O75365)
- Construct: 6xHis (N, cleaved yes); made in house; host or cells: E. coli One Shot BL21 Star
- Sequence (O75365 whole entry): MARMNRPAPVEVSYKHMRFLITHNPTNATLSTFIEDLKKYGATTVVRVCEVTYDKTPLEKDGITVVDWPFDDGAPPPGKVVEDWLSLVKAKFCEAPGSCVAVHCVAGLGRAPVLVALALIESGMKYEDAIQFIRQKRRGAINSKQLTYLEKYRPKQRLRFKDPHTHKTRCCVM
- testDescription: In vitro phosphatase assay (DiFMUP hydrolysis), PRL-3; also: test concentration or dose not given here
- Assay type: biochemical
- experimentalContext: FDA-approved drug screen; compared to DMSO
measuredAttribute: % Phosphatase Activity (compared to DMSO) PRL-3
Dear colleague, please send the value followed by its unit.

Sample answers from the record:
molecule	readoutValue
C[C@@](Cc1ccc(O)c(O)c1)(NN)C(=O)O [Carbidopa]	94%
CCCC(CCC)C(=O)O[C@H]1C[C@H]2CC[C@@H](C1)[N+]2(C)C [Anisotropine Methylbromide]	77%
N.N.O=C([O-])C1(C(=O)[O-])CCC1.[Pt+2] [Carboplatin]	85%
C[C@@H]1[C@H](O)[C@@H](C)/C=C/C=C/CC/C=C/C=C/C=C/C=C/[C@H](O[C@H]2O[C@@H](C)[C@H](O)[C@@H](N)[C@H]2O)C[C@@H]2O[C@](O)(C[C@@H](O)[C@H](O)CC[C@@H](O)C[C@@H](O)C[C@@H](O)CC(=O)O[C@H]1C)C[C@H](O)[C@H]2C(=O)O [Nystatin (Fungicidin)]	81%

% Phosphatase Activity (compared to DMSO) PRL-3 for Cc1nc2c([nH]1)-c1ccccc1N(C(=O)c1ccc(NC(=O)c3ccccc3-c3ccccc3)cc1)CC2.Cl [Conivaptan HCl] is 85%

% Phosphatase Activity (compared to DMSO) PRL-3 for O=c1c(-n2ccnn2)c[nH]n1-c1cc(N2CCOCC2)ncn1 [Molidustat (BAY 85-3934)] is 84%
